Substrate: PET
experiment_notes: Proxy for plastic degradation [HPLC-UV] (mmol)
cond: pH 8; 60 °C
measurement_name: Proxy for plastic degradation

protein: unnamed (protein) QVYEIGHTTITFNDPSRSRDIETEIYYPADVAGENVAVSTGTFPVCVFGHGFTMSVDAYENFSDVLVPQGYIILLPSTEDGFSPNHDEFGLDLAFLVDEFQLENTNGTSLFYGAIAPETALMGHSMGGGCSFLAAESNSSVTTLVNFAAAETNTSAIAAAANITIPAVVFSGEVDPVAPPADHQIPMYNALASECKTYISINDGGHCYFANYNFYCTMGEEAMMPGGPPLTREEQQQTTLDFLSIWLDYTLKGNANALTVFNDSLASSPRITYQQDCNLTILDQINPNAEFKVYPNPADQFFILESSREIKHVLIYNSMGSICLERNKRHRIDISELPEGMYVIKAITESGSFTKKIMVLH
result: 0
